# tested.on: PglD UDP-4-amino-sugar N-acetyltransferase (Campylobacter jejuni)
# protocol.notes: PglD acetyltransferase inhibitors, dose response, biochemical, DTNB absorbance, dry powder samples, set 5 (AID 743125)
# protocol.conditions: purified PglD, DTNB absorbance 412 nm, CoA release
Measured AC50, listed per entry.

1. Cc1c(C(=O)O)sc2nc(/C=C/c3cccc(N)c3)[nH]c(=O)c12 :: 16.9 µM
2. COc1cccc(/C=C/c2nc3sc(C(=O)O)c(C)c3c(=O)[nH]2)c1 :: 11.5 µM
3. Cc1c(C(=O)O)sc2nc(/C=C/c3ccccc3O)[nH]c(=O)c12 :: 24.9 µM

Switching to the query record.
AC50 in this record for Cc1c(C(=O)O)sc2nc(/C=C/c3ccccn3)[nH]c(=O)c12 : 7.09 µM

---

# tested.on: PglD UDP-4-amino-sugar N-acetyltransferase (Campylobacter jejuni)
# protocol.notes: PglD acetyltransferase inhibitors, dose response, biochemical, DTNB absorbance, dry powder samples, set 5 (AID 743125)
# protocol.conditions: purified PglD, DTNB absorbance 412 nm, CoA release
The source made the active and inactive calls.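 The calls were made as follows: active = fitted AC50 no higher than twice the top valid dose tested for that sample; inconclusive = flat curve between -30 and -70% activity, or poor fit; inactive = the rest.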
readout.kind: AC50

1) Cc1c(C(=O)O)sc2nc(/C=C/c3cccc([N+](=O)[O-])c3)[nH]c(=O)c12 :: > 39 µM (inactive)
2) Cc1c(C(=O)O)sc2nc(/C=C/c3cccc(=O)[nH]3)[nH]c(=O)c12 :: 4.69 µM
3) Cc1c(C(=O)O)sc2nc(/C=C/c3ccc4[nH]ccc4n3)[nH]c(=O)c12 :: 7 µM
4) Cc1c(C(=O)O)sc2nc(/C=C/c3cccc(N4CCOCC4)n3)[nH]c(=O)c12 :: > 20 µM (inactive)

Switching to the query record.
AC50 in this record for Cc1c(C(=O)O)sc2nc(/C=C/c3cccc(OC(F)(F)F)c3)[nH]c(=O)c12 : > 39 µM (inactive)
